Property: self-splicing fitness (ln); scope: individual sequences
test.protocol: self-splicing fitness, log relative to wild type (ln ratio); higher = more splicing; Tetrahymena group I intron in knt gene, E. coli kanamycin selection, DiMSum; sequences stand for … in CUCUCU…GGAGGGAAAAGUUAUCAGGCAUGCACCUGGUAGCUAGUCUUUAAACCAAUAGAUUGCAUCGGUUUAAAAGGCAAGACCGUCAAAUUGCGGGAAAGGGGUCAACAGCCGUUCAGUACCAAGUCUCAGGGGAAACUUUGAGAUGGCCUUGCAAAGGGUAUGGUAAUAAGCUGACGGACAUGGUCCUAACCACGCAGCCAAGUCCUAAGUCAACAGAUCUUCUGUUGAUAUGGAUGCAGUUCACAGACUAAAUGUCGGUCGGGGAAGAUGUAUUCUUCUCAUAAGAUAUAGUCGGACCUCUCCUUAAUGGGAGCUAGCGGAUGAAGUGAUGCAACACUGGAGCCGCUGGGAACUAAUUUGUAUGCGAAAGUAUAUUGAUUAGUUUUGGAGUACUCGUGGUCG;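 further: selection with 25 µg/mL kanamycin versus none on LB agar overnight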
cond: 30 °C

# chain.sequence, self-splicing fitness (ln)
data = [
    ("UGGCAGCAAUAUUACGAUGG", -1.48),
    ("GCUUAGCAAUAUUACGUAAA", -0.47),
    ("AAAAAGCAAUAUUACGGACU", -0.0499),
    ("GGCGAGCAAUAUUACGCACG", -2.49),
    ("CUAAAGCAAUAUUACGGUAA", -3.53),
    ("CCUAAGCAAUAUUACGCAGG", -4.8),
    ("AUGAAGCAAUAUUACGACAC", 0.0739),
    ("CGGAAGCAAUAUUACGGAUU", -4.05),
    ("GAUGAGCAAUAUUACGCAUG", -1.61),
    ("UACAAGCAAUAUUACGGUGA", -1.28),
    ("UGGCAGCAAUAUUACGCCGU", -2.63),
    ("AGGUAGCAAUAUUACGACAU", 0),
    ("UACAAGCAAUAUUACGUCCG", -0.564),
    ("AUCUAGCAAUAUUACGAUAA", -2.1),
    ("CACGAGCAAUAUUACGUUGC", -3.91),
    ("AAGCAGCAAUAUUACGCACA", -0.331),
    ("ACUGAGCAAUAUUACGCGAG", -2.27),
    ("UUUAAGCAAUAUUACGGGUC", -3.19),
    ("UCUCAGCAAUAUUACGCACA", -1.72),
    ("CUAGAGCAAUAUUACGCUCG", -3.8),
    ("CAACAGCAAUAUUACGACUG", -0.232),
    ("ACGUAGCAAUAUUACGAGGG", -3.91),
    ("GAGAAGCAAUAUUACGAUCU", -1.66),
    ("CUCCAGCAAUAUUACGGUAC", -2.28),
    ("ACACAGCAAUAUUACGCUGC", -2.18),
    ("AGUGAGCAAUAUUACGGUGU", -4.01),
    ("CGGCAGCAAUAUUACGGUCG", -3.51),
    ("GAGAAGCAAUAUUACGGCAU", -0.391),
    ("AAAUAGCAAUAUUACGUGCU", -0.869),
    ("GGCAAGCAAUAUUACGUGAG", -1.21),
    ("GGCAAGCAAUAUUACGACAA", -0.0702),
    ("CCGGAGCAAUAUUACGCGUA", -3.18),
    ("AGCAAGCAAUAUUACGAUAA", -2.16),
    ("UCACAGCAAUAUUACGGCAU", -4.11),
    ("UAUAAGCAAUAUUACGCACG", -0.779),
    ("AGACAGCAAUAUUACGGAGC", -3.94),
    ("ACGUAGCAAUAUUACGCGUG", -1.73),
    ("ACCUAGCAAUAUUACGGCCC", -0.812),
    ("UGCCAGCAAUAUUACGGGCU", -2.6),
    ("GAUGAGCAAUAUUACGGGCU", -2.22),
    ("CGCUAGCAAUAUUACGGUAU", -3.03),
    ("CUCAAGCAAUAUUACGUUCA", -2.07),
    ("UACCAGCAAUAUUACGGUCG", -0.769),
    ("CCACAGCAAUAUUACGCGCG", -1.02),
    ("GAAUAGCAAUAUUACGGUUG", -1.27),
    ("GAAAAGCAAUAUUACGGUAA", -1.98),
    ("GCCUAGCAAUAUUACGAUAC", -2.39),
    ("UCACAGCAAUAUUACGUGCA", -0.403),
    ("AGUGAGCAAUAUUACGGGGU", -4.06),
    ("GGCAAGCAAUAUUACGGUGC", -2.87),
    ("AACUAGCAAUAUUACGUAUG", -3.11),
    ("ACUGAGCAAUAUUACGUUCG", -2.2),
    ("UACGAGCAAUAUUACGCACC", -1.91),
    ("AUAAAGCAAUAUUACGGUUG", -1.68),
    ("CAACAGCAAUAUUACGCCGU", -4.14),
    ("GCCUAGCAAUAUUACGUGGC", -3.15),
    ("CCUAAGCAAUAUUACGUUCU", -2.57),
    ("GCCAAGCAAUAUUACGGCCC", -2.13),
    ("AGGGAGCAAUAUUACGGCGC", -2.78),
    ("UAACAGCAAUAUUACGGAGG", -3.85),
    ("GACUAGCAAUAUUACGGUCA", -1.13),
    ("AUAUAGCAAUAUUACGAUAG", -2.39),
    ("CAGAAGCAAUAUUACGAAUA", -2.43),
    ("CCCGAGCAAUAUUACGCGAG", -5.08),
    ("UGUCAGCAAUAUUACGAUCA", -0.048),
    ("UCUAAGCAAUAUUACGAAAU", -3.53),
    ("AAGAAGCAAUAUUACGGUUG", -2.72),
]

* * *

test.protocol: self-splicing fitness, log relative to wild type (ln ratio); higher = more splicing; Tetrahymena group I intron in knt gene, E. coli kanamycin selection, DiMSum; sequences stand for … in CUCUCU…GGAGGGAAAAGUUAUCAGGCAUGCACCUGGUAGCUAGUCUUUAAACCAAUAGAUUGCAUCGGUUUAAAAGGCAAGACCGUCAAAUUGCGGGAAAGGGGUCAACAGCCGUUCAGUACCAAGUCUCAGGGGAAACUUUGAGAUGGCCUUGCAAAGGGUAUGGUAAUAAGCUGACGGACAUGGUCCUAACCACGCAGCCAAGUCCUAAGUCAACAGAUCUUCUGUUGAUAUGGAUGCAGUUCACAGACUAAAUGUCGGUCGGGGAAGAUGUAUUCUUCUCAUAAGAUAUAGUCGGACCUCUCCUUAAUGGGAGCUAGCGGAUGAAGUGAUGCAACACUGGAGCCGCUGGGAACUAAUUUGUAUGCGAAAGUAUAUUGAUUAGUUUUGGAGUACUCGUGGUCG
cond: 30 °C

# chain.sequence, self-splicing fitness (ln)
data = [
    ("AGAAAGCAAUAUUACGUCAU", -1.55),
    ("CACCAGCAAUAUUACGCAAG", -0.716),
    ("GGUUAGCAAUAUUACGGCGG", -2.05),
    ("AAUGAGCAAUAUUACGUUUA", -3.81),
    ("ACAGAGCAAUAUUACGAGUU", -3.3),
    ("UUAAAGCAAUAUUACGACGG", -0.186),
    ("AGCUAGCAAUAUUACGUACA", -2.25),
    ("AGCUAGCAAUAUUACGGCUG", -0.696),
]

* * *

test.protocol: self-splicing fitness, log relative to wild type (ln ratio); higher = more splicing; Tetrahymena group I intron in knt gene, E. coli kanamycin selection, DiMSum; sequences stand for … in CUCUCU…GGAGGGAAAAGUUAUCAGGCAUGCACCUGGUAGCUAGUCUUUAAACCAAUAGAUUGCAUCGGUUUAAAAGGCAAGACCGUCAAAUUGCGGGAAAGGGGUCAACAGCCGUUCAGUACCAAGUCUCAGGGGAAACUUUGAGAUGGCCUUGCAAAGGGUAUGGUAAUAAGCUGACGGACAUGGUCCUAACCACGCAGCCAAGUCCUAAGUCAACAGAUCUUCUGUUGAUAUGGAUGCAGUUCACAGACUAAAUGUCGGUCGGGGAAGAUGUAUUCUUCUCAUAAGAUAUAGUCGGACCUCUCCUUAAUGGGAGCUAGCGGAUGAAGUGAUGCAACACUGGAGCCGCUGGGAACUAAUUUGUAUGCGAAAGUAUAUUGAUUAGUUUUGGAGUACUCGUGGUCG
cond: 30 °C
Entry flag: Fulfilled if self-splicing fitness (ln) reaches -2; Not fulfilled if it does not.

# chain.sequence, category.label
data = [
    ("UACUAGCAAUAUUACGCCUU", "Fulfilled"),
    ("CUCGAGCAAUAUUACGCCAC", "Not fulfilled"),
    ("ACCAAGCAAUAUUACGUGCG", "Fulfilled"),
    ("CUCGAGCAAUAUUACGAAAG", "Not fulfilled"),
    ("UCUUAGCAAUAUUACGCGUG", "Not fulfilled"),
    ("UCACAGCAAUAUUACGUUCG", "Fulfilled"),
    ("CUGUAGCAAUAUUACGUUGA", "Not fulfilled"),
    ("UGUGAGCAAUAUUACGGCAC", "Not fulfilled"),
    ("CACCAGCAAUAUUACGUAUC", "Not fulfilled"),
    ("UCGGAGCAAUAUUACGCACG", "Not fulfilled"),
    ("UUCUAGCAAUAUUACGAGCG", "Fulfilled"),
    ("CCGUAGCAAUAUUACGGCUG", "Not fulfilled"),
    ("CAACAGCAAUAUUACGCCAA", "Not fulfilled"),
    ("CGGGAGCAAUAUUACGGUUG", "Fulfilled"),
    ("CCAAAGCAAUAUUACGAUAA", "Not fulfilled"),
    ("GGCAAGCAAUAUUACGGCUU", "Fulfilled"),
]
